Assay: Tmax in Plasmodium chabaudi infected Balb/c mouse at 50 mg/kg, ip by LC-MS/MS analysis
Assay type: ADME, organism-based
Conditions: in vivo

Compound	Tmax [h]
O=C(O[C@H]1CCC[C@@]2(C1)OOC1(O2)C2CC3CC(C2)CC1C3)N1CCCC[C@@H]1[C@@H](O)c1cc(C(F)(F)F)nc2c(C(F)(F)F)cccc12 (stereo partly specified)	2

----------
Experiment: Stability in human blood after 240 mins by LC/MS analysis
Format: ADME
Details: whole blood, read-out: Stability

Molecule	remaining at 4 h, %
O=C(O[C@H]1CCC[C@@]2(C1)OOC1(O2)C2CC3CC(C2)CC1C3)N1CCCC[C@@H]1[C@@H](O)c1cc(C(F)(F)F)nc2c(C(F)(F)F)cccc12 (some centres not stated)	85
O[C@@H](c1cc(C(F)(F)F)nc2c(C(F)(F)F)cccc12)[C@H]1CCCCN1 (racemic) [(S,R)-MEFLOQUINE]	95

----------
Experiment: Apparent oral clearance in Balb/c mouse at 50 mg/kg, ip by LC-MS/MS analysis
Format: ADME, organism-based
Details: in vivo
Observation type: CL/F

Compound	Observation type	Result
O=C(O[C@H]1CCC[C@@]2(C1)OOC1(O2)C2CC3CC(C2)CC1C3)N1CCCC[C@@H]1[C@@H](O)c1cc(C(F)(F)F)nc2c(C(F)(F)F)cccc12 (stereo partly specified)	CL/F	24.5 mL/min/kg

----------
Assay: AUC (infinity) in Balb/c mouse at 50 mg/kg, ip by LC-MS/MS analysis
Assay type: ADME, organism-based
Parameters: dose 50 mg/kg, time infinity, route intraperitoneal
Conditions: in vivo
Observation type: AUC(0-inf) (ng·h/mL)

Compound	Observation type	Quantitative readout
O=C(O[C@H]1CCC[C@@]2(C1)OOC1(O2)C2CC3CC(C2)CC1C3)N1CCCC[C@@H]1[C@@H](O)c1cc(C(F)(F)F)nc2c(C(F)(F)F)cccc12 (stereo partly specified)	AUC(0-inf)	34100

----------
Assay: Mean residence time (infinity) in Plasmodium chabaudi infected Balb/c mouse at 50 mg/kg, ip by LC-MS/MS analysis
Format: ADME, organism-based
Settings: in vivo
Observation type: MRT inf (h)

Molecule	Reading unit	Quantitative readout
O=C(O[C@H]1CCC[C@@]2(C1)OOC1(O2)C2CC3CC(C2)CC1C3)N1CCCC[C@@H]1[C@@H](O)c1cc(C(F)(F)F)nc2c(C(F)(F)F)cccc12 (stereo partly specified)	h	10.6

----------
Experiment: Tmax in Balb/c mouse at 50 mg/kg, ip by LC-MS/MS analysis
Type: ADME, organism-based
Details: in vivo

Compound	Tmax [h]
O=C(O[C@H]1CCC[C@@]2(C1)OOC1(O2)C2CC3CC(C2)CC1C3)N1CCCC[C@@H]1[C@@H](O)c1cc(C(F)(F)F)nc2c(C(F)(F)F)cccc12 (stereo partly specified)	1

----------
Assay: AUC (infinity) in Plasmodium chabaudi infected Balb/c mouse at 50 mg/kg, ip by LC-MS/MS analysis
Format: ADME, organism-based
Design: dose 50 mg/kg, route intraperitoneal, time infinity
Conditions: in vivo
Observation type: AUC(0-inf) (ng·h/mL)

Molecule	Observation type	Quantitative readout
O=C(O[C@H]1CCC[C@@]2(C1)OOC1(O2)C2CC3CC(C2)CC1C3)N1CCCC[C@@H]1[C@@H](O)c1cc(C(F)(F)F)nc2c(C(F)(F)F)cccc12 (stereo partly specified)	AUC(0-inf)	13600
